Target: T1, Biotinylated CD96 antigen (human, UniProt P40200-2 22-503, limits assumed, biotinylated)
T1 sequence (looked up): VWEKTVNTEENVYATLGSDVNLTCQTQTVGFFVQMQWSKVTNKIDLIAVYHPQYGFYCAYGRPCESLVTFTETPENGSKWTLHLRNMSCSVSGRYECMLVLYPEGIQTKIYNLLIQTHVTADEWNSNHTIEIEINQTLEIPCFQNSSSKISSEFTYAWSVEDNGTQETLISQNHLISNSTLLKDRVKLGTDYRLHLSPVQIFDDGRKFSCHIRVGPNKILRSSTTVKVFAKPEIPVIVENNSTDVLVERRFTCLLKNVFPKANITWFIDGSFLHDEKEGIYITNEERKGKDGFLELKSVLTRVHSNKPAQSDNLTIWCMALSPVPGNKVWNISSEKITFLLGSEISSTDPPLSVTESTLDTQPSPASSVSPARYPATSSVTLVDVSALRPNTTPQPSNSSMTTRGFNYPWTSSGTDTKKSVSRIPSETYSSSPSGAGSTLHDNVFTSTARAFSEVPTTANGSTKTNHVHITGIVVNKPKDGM
Experiment: competition ELISA, antibody B premixed with biotinylated CD96; competitor (coated antibody A): h1719-014
Reported Endpoint: competition (percent) (%)
The reply should be a number in %, with the unit left off.

Given h1721-003 (antibody, V domains shown, Only variable regions are tied to this name; also called M721-003) VH: EVTLKESGPVLVKPTETLTLTCTVSGFSLSSYGVNWIRQPPGKALEWLGVIWGDGSTNYHSALISRLTISKDTSKSQVVLTLTNMDPVDTATYYCAKNYFYGSRYGYAMDSWGQGTTVTVSS VL: DIQMTQSPSSLSASVGDRVTITCRASENIYSSLAWYQQKPGKAPKLLIYNAKTLIEGVPSRFSGSGSGTDFTLTISSLQPEDFATYYCQHHYGTPYTFGGGTKVEIK , state its recorded competition (percent). 96
